# Test system: Citrated plasma
# PROCEDURE_DETAILS: Measurement of PT (prothrombin time) in citrated plasma
# Format: biochemical
# CONDITION: STA-Neoplastine, 37° C., unit not given (2×PT value)
Entries annotated with measured PT
I only need the number, thanks.

CC(C)=CC1=NCCN1c1ccc(N2C[C@H](CNC(=O)c3ccc(Cl)s3)OC2=O)cc1 : 0.06

Look up PT with Citrated plasma for this compound: Cc1csc(C2=NCCN2c2ccc(N3C[C@H](CNC(=O)c4ccc(Cl)s4)OC3=O)cc2)n1
0.94

Look up PT with Citrated plasma for this compound: O=C(NC[C@H]1CN(c2ccc(N3CCN=C3C3CCC3)cc2)C(=O)O1)c1ccc(Cl)s1
0.58

* * *

# PROCEDURE_DETAILS: Determination of aqueous solubility
# Assay type: physicochemical
# CONDITION: aqueous with cosolvent or surfactant or cyclodextrin, kinetic from dmso stock; 100 mM potassium phosphate buffer pH 7.4, 5% DMSO, final concentration 500 μM, ambient temperature 90 minutes
ASSAY_ENDPOINT: solubility at 90 min (µM)
Give a bare numeral; the unit µM is implied.

Some solved cases for reference:
O=C(NC[C@H]1CN(c2ccc(N3CCOCC3=O)cc2)C(=O)O1)c1ccc(Cl)s1 [Rivaroxaban, reference compound] : 50
CN1CCCN=C1c1ccc(N2C[C@H](CNC(=O)c3ccc(Cl)s3)OC2=O)cc1 [Compound 107] : 411
O=C(NC[C@H]1CN(c2ccc(N3CCN=C3c3ccco3)cc2)C(=O)O1)c1ccc(Cl)s1 [Compound 123] : 474
O=C(NC[C@H]1CN(c2ccc(N3CCN=C3C3CC3)cc2)C(=O)O1)c1ccc(Cl)s1 [Compound 117] : 484
O=C(NC[C@H]1CN(c2ccc(C3=NCCN3)cc2)C(=O)O1)c1ccc(Cl)s1 [Compound 100] : 441

What value of solubility at 90 min has been recorded for this entry: CCN1CCN=C1c1ccc(N2C[C@H](CNC(=O)c3ccc(Cl)s3)OC2=O)cc1 [Compound 102]
462

What value of solubility at 90 min has been recorded for this entry: CN1CCN=C1c1ccc(N2C[C@H](CNC(=O)c3ccc(Cl)s3)OC2=O)cc1 [Compound 101]
434

* * *

Entries annotated with measured PT
# Test system: Citrated plasma
# PROCEDURE_DETAILS: Measurement of PT (prothrombin time) in citrated plasma
# Format: biochemical
# CONDITION: STA-Neoplastine, 37° C., unit not given (2×PT value)
I only need the number, thanks.

Some solved cases for reference:
O=C(NC[C@H]1CN(c2ccc(N3CCN=C3C3CCOC3)cc2)C(=O)O1)c1ccc(Cl)s1 (stereo partly drawn) : 0.05
CN1CCN=C1c1ccc(N2C[C@H](CNC(=O)c3ccc(Cl)s3)OC2=O)cc1 : 0.05

Then this compound:
What value of PT has been recorded for this entry: CCC1=NCCN1c1ccc(N2C[C@H](CNC(=O)c3ccc(Cl)s3)OC2=O)cc1
0.05

* * *

Entries annotated with measured PT
# Tested on: Citrated plasma
# PROCEDURE_DETAILS: Measurement of PT (prothrombin time) in citrated plasma
# Type: biochemical
# CONDITION: STA-Neoplastine, 37° C., unit not given (2×PT value)
I only need the number, thanks.

Some solved cases for reference:
Cc1ccc(C2=NCCN2c2ccc(N3C[C@H](CNC(=O)c4ccc(Cl)s4)OC3=O)cc2)s1 [Compound 131] : 0.08
CCN1CCN=C1c1ccc(N2C[C@H](CNC(=O)c3ccc(Cl)s3)OC2=O)cc1F [Compound 110] : 0.03
CN1CCCN=C1c1ccc(N2C[C@H](CNC(=O)c3ccc(Cl)s3)OC2=O)cc1F [Compound 111] : 0.03
O=C(NC[C@H]1CN(c2ccc(N3C=NCC3)cc2)C(=O)O1)c1ccc(Cl)s1 [Compound 115] : 0.34

Then this molecule:
What value of PT has been recorded for this entry: O=C(NC[C@H]1CN(c2ccc(C3=NCCCN3)cc2)C(=O)O1)c1ccc(Cl)s1 [Compound 106]
0.09

Reference source for all entries: patent US8288423B2
